Numbers sourced from ChEMBL document CHEMBL1144710.

- experimental system: Histone-lysine N-methyltransferase SETD7 (Homo sapiens) (UniProt Q8WTS6)
- Sequence (whole entry): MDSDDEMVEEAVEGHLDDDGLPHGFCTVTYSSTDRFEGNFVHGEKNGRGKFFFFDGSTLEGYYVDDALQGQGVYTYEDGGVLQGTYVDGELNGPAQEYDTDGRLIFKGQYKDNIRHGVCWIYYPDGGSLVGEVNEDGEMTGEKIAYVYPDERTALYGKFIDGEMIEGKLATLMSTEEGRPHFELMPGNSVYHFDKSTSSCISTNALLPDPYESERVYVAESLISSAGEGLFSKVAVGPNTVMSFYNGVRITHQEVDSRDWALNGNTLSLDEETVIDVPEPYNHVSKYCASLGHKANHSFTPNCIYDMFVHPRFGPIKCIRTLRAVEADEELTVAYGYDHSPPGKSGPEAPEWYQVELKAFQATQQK
- experiment summary: Inhibition of human recombinant SET7 assessed as histone H3 protein methylation at 100 uM
Active and inactive are the calls of the source. The rule behind the calls is not given here.
Possible outcomes: active, inactive

{"columns": ["mol", "category"],
 "data": [
  ["O=C1/C(=C/c2cc(Br)c(O)c(Br)c2)COC/C1=C\\c1cc(Br)c(O)c(Br)c1", "active"],
  ["O=C(/C=C/c1ccc(O)c(Br)c1)c1cccc(C(=O)/C=C/c2ccc(O)c(Br)c2)c1", "inactive"],
  ["O=C1/C(=C/c2ccc(O)c(Br)c2)CCCC/C1=C\\c1ccc(O)c(Br)c1", "inactive"],
  ["O=C1/C(=C/c2ccc(O)c(Br)c2)COC/C1=C\\c1ccc(O)c(Br)c1", "inactive"],
  ["O=C(/C=C/c1c(Br)cc(O)cc1Br)/C=C/c1c(Br)cc(O)cc1Br", "inactive"],
  ["O=C1/C(=C/c2cc(Br)c(O)c(Br)c2)CSC/C1=C\\c1cc(Br)c(O)c(Br)c1", "active"],
  ["O=C(Nc1cccc(NC(=O)c2cc(Br)c(O)c(Br)c2)c1)c1cc(Br)c(O)c(Br)c1", "active"],
  ["O=C1/C(=C/c2ccc(O)c(Br)c2)Cc2ccccc2/C1=C\\c1ccc(O)c(Br)c1", "inactive"],
  ["O=C1OC2(c3ccccc31)c1cc(Br)c(O)c(Br)c1Oc1c2cc(Br)c(O)c1Br", "active"],
  ["O=C(/C=C/c1cc(Br)c(O)c(Br)c1)c1cccc(C(=O)/C=C/c2cc(Br)c(O)c(Br)c2)c1", "active"]
]}
